Reported IC50 by item:
- system_tested: HCV NS3-4A serine protease (full-length NS3-4A protein, genotype 1a, strain HCV-1) (Hepatitis C virus genotype 1a)
- Construct: using the full-length NS3-4A protein (genotype 1a, strain HCV-1)
- method_summary: HCV NS3-4A protease assay
- Format: biochemical
- condition_details: Protease IC50
measurement_name: IC50 (nM)

molecule	value_unit	measured
C=C[C@@H]1C[C@]1(NC(=O)[C@@H]1C[C@@]2(CN1C(=O)[C@@H](NC(=O)[C@@H](NC(=O)[C@@H]1CCCCN1C(C)C)C1CCCCC1)C(C)(C)C)C(C)(C)C21CCC1)C(=O)NS(=O)(=O)C1(CC)CC1 [Compound 66]	nM	1.8
C=C[C@@H]1C[C@]1(NC(=O)[C@@H]1C[C@@]2(CN1C(=O)[C@@H](NC(=O)[C@@H](NC(=O)[C@@H]1CCCCN1CCF)C1CCCCC1)C(C)(C)C)C(C)(C)C21CCC1)C(=O)NS(=O)(=O)C1CC1 [Compound 29]	nM	1
C=C[C@@H]1C[C@]1(NC(=O)[C@@H]1C[C@@]2(CN1C(=O)[C@@H](NC(=O)[C@@H](NC(=O)[C@@H]1CCC(=O)N1)C1CCCCC1)C(C)(C)C)C(C)(C)C21CCC1)C(=O)NS(=O)(=O)C1CC1 [Compound 110]	nM	1.5
C=C[C@@H]1C[C@]1(NC(=O)[C@@H]1C[C@@]2(CN1C(=O)[C@@H](NC(=O)[C@@H](NC(=O)N(C)C)C(C)(C)C)C(C)(C)C)C(C)(C)C21CCC1)C(=O)NS(=O)(=O)C1CC1 [Compound 56]	nM	50

---

- system_tested: HCV NS3-4A serine protease (full-length NS3-4A protein, genotype 1a, strain HCV-1) (Hepatitis C virus genotype 1a, UniProt P26664)
- Construct: using the full-length NS3-4A protein (genotype 1a, strain HCV-1)
- Sequence (P26664 1658-1711): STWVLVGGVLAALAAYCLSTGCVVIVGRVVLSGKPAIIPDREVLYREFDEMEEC
- Sequence (P26664 1027-1657): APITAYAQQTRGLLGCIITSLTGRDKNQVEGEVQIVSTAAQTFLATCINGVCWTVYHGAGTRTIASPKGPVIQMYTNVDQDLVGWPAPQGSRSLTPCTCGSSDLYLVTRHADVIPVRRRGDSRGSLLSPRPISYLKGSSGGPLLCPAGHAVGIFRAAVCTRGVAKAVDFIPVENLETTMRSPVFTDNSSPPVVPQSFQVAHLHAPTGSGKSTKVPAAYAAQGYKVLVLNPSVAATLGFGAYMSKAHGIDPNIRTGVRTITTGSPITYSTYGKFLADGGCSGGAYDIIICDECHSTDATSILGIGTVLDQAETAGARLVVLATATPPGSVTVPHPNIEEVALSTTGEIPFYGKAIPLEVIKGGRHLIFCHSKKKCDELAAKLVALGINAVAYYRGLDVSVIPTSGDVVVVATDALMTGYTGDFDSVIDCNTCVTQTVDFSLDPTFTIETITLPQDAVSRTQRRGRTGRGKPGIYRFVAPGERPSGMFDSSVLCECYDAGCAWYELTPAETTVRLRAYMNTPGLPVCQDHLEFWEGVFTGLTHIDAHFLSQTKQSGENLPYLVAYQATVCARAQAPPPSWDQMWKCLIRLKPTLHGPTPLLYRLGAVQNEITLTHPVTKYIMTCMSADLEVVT
- method_summary: HCV NS3-4A protease assay
- Format: biochemical
- condition_details: Protease IC50

compound	IC50 / nM
CC(C)N1CCCC[C@H]1C(=O)N[C@H](C(=O)N[C@H](C(=O)N1C[C@]2(C[C@H]1C(=O)NC1(C(=O)NS(=O)(=O)C3CC3)CCCC1)C(C)(C)C21CCC1)C(C)(C)C)C1CCCCC1	100
C=C[C@@H]1C[C@]1(NC(=O)[C@@H]1C[C@@]2(CN1C(=O)[C@@H](NC(=O)[C@@H](NC(=O)C1CCCCN1C(C)C)C(C)(C)C)C(C)(C)C)C(C)(C)C21CCC1)C(=O)NS(=O)(=O)C(C)(C)C (stereo partly shown)	8
C=C[C@@H]1C[C@]1(NC(=O)[C@@H]1C[C@@]2(CN1C(=O)[C@@H](NC(=O)[C@@H](NC(=O)[C@@H]1CCCCN1CC)C1CCCCC1)C(C)(C)C)C(C)(C)C21CCC1)C(=O)NS(=O)(=O)C1(CCC)CC1	1.5
C=C[C@@H]1C[C@]1(NC(=O)[C@@H]1C[C@@]2(CN1C(=O)[C@@H](NC(=O)[C@@H](NC(=O)[C@@H]1CCCN1CC)C1CCCCC1)C(C)(C)C)C(C)(C)C21CCC1)C(=O)NS(=O)(=O)C1(CCC)CC1	1.5

---

- system_tested: HCV NS3-4A serine protease (full-length NS3-4A protein, genotype 1a, strain HCV-1) (Hepatitis C virus genotype 1a, UniProt P26664)
- Construct: using the full-length NS3-4A protein (genotype 1a, strain HCV-1)
- method_summary: HCV NS3-4A protease assay
- Assay type: biochemical
- condition_details: Protease IC50
measurement_name: IC50 (nM)

compound	measurement_name	measured
C=C[C@@H]1C[C@]1(NC(=O)[C@@H]1C[C@@]2(CN1C(=O)[C@@H](NC(=O)[C@@H](NC(=O)[C@@H]1CCCCN1C(C)C)C(C)(C)CC)C(C)(C)C)C(C)(C)C21CCC1)C(=O)NS(=O)(=O)C1CC1 [Compound 36]	IC50	1
C=C[C@H]1C[C@@]1(NC(=O)[C@@H]1C[C@@]2(CN1C(=O)[C@@H](NC(=O)[C@@H](NC(=O)c1ncc[nH]1)C1CCCCC1)C(C)(C)C)C(C)(C)C21CCC1)C(=O)NS(=O)(=O)C1CC1 [Compound 105]	IC50	0.9
C=C[C@@H]1C[C@]1(NC(=O)[C@@H]1C[C@@]2(CN1C(=O)[C@@H](NC(=O)[C@@H](N1CCCC1=O)C(C)(C)C)C(C)(C)C)C(C)(C)C21CCC1)C(=O)NS(=O)(=O)C1CC1 [Compound 35]	IC50	9
CC(C)N1CCCC[C@H]1C(=O)N[C@H](C(=O)N[C@H](C(=O)N1C[C@]2(C[C@H]1C(=O)NC1(C(=O)NS(=O)(=O)C3CC3)CCC1)C(C)(C)C21CCC1)C(C)(C)C)C(C)(C)C [Compound 133]	IC50	450
C=C[C@@H]1C[C@]1(NC(=O)[C@@H]1C[C@@]2(CN1C(=O)[C@@H](NC(=O)[C@@H](NC(=O)c1ccc[nH]1)C1CCCCC1)C(C)(C)C)C(C)(C)C21CCC1)C(=O)NS(=O)(=O)C1CC1 [Compound 114]	IC50	0.7
C=C[C@@H]1C[C@]1(NC(=O)[C@@H]1C[C@@]2(CN1C(=O)[C@@H](NC(=O)[C@@H](NC(=O)C(C)(C)N1CCCCC1)C(C)(C)C)C(C)(C)C)C(C)(C)C21CCC1)C(=O)NS(=O)(=O)C1CC1 [Compound 119]	IC50	3.5
C=C[C@@H]1C[C@]1(NC(=O)[C@@H]1C[C@@]2(CN1C(=O)[C@@H](NC(=O)C(NC(=O)c1cc3ccccc3[nH]1)C1CCCCC1)C(C)(C)C)C(C)(C)C21CCC1)C(=O)NS(=O)(=O)C1CC1 (stereo partly drawn) [Compound 125]	IC50	1.5
CC(C)N1CCCCC1C(=O)N[C@H](C(=O)N[C@H](C(=O)N1C[C@]2(C[C@H]1C(=O)N[C@]1(C(=O)NS(=O)(=O)C3CC3)CC=CCC1)C(C)(C)C21CCC1)C(C)(C)C)C(C)(C)C (stereo partly drawn) [Compound 26]	IC50	2950
C=C[C@H]1C[C@@]1(NC(=O)C1C[C@@]2(CN1C(=O)[C@@H](NC(=O)[C@@H](NC(=O)C1CCN1C(C)(C)C)C(C)(C)C)C(C)(C)C)C(C)(C)C21CCC1)C(=O)NS(=O)(=O)C1CC1 (stereo partly drawn) [Compound 123]	IC50	6
